experimental_protocol: Pharmacokinetics after 24-hour subcutaneous infusion via fluid delivery device in male Beagle dogs (plasma, LC-MS/MS)
details: male, Beagle, dog, in vivo, sc, 76 mg/animal, Plasma concentration of CBD, SC infusion 76 mg/animal, 2 hr, mean (BLOQ samples excluded)
measured_attribute: concentration at 2 h (ng/mL)
Report as a plain number; the unit ng/mL is understood.

The recorded concentration at 2 h for "C=C(C)[C@@H]1CCC(C)=C[C@H]1c1c(O)cc(CCCCC)cc1O" is 4.97

* * *

experimental_protocol: Pharmacokinetics after 24-hour subcutaneous infusion via fluid delivery device in male Beagle dogs (plasma, LC-MS/MS)
details: male, Beagle, dog, in vivo, sc, 40 mg/animal, Plasma concentration of CBD, Group 1, SC infusion 40 mg/animal, 8 hr, mean (BLOQ samples excluded)
measured_attribute: concentration at 8 h (ng/mL)
Report as a plain number; the unit ng/mL is understood.

The recorded concentration at 8 h for C=C(C)[C@@H]1CCC(C)=C[C@H]1c1c(O)cc(CCCCC)cc1O [CBD, Cannabidiol] is 6.03

* * *

experimental_protocol: Pharmacokinetics after 24-hour subcutaneous infusion via fluid delivery device in male Beagle dogs (plasma, LC-MS/MS)
details: male, Beagle, dog, in vivo, sc, 76 mg/animal, Plasma concentration of CBD, SC infusion 76 mg/animal, 5 hr, mean (BLOQ samples excluded)
measured_attribute: concentration at 5 h (ng/mL)
Report as a plain number; the unit ng/mL is understood.

The recorded concentration at 5 h for "C=C(C)[C@@H]1CCC(C)=C[C@H]1c1c(O)cc(CCCCC)cc1O" is 2.17

* * *

experimental_protocol: Pharmacokinetics after 24-hour subcutaneous infusion via fluid delivery device in male Beagle dogs (plasma, LC-MS/MS)
details: male, Beagle, dog, in vivo, sc, 76 mg/animal, Plasma concentration of CBD, SC infusion 76 mg/animal, 10 hr, mean (BLOQ samples excluded)
measured_attribute: concentration at 10 h

The recorded concentration at 10 h for C=C(C)[C@@H]1CCC(C)=C[C@H]1c1c(O)cc(CCCCC)cc1O [CBD, Cannabidiol] is 4.19 ng/mL

* * *

experimental_protocol: Pharmacokinetics after 24-hour subcutaneous infusion via fluid delivery device in male Beagle dogs (plasma, LC-MS/MS)
details: male, Beagle, dog, in vivo, sc, 76 mg/animal, Plasma concentration of CBD, SC infusion 76 mg/animal, 3 hr, mean (BLOQ samples excluded)
measured_attribute: concentration at 3 h (ng/mL)
Report as a plain number; the unit ng/mL is understood.

The recorded concentration at 3 h for C=C(C)[C@@H]1CCC(C)=C[C@H]1c1c(O)cc(CCCCC)cc1O [CBD, Cannabidiol] is 4.38

* * *

experimental_protocol: Pharmacokinetics after 24-hour subcutaneous infusion via fluid delivery device in male Beagle dogs (plasma, LC-MS/MS)
details: male, Beagle, dog, in vivo, sc, 40 mg/animal, Plasma concentration of CBD, Group 1, SC infusion 40 mg/animal, 6 hr, mean (BLOQ samples excluded)
measured_attribute: concentration at 6 h (ng/mL)
Report as a plain number; the unit ng/mL is understood.

The recorded concentration at 6 h for "C=C(C)[C@@H]1CCC(C)=C[C@H]1c1c(O)cc(CCCCC)cc1O" is 6.12

* * *

experimental_protocol: Pharmacokinetics after 24-hour subcutaneous infusion via fluid delivery device in male Beagle dogs (plasma, LC-MS/MS)
details: male, Beagle, dog, in vivo, sc, 40 mg, AUClast, Group 1, SC infusion 40 mg/animal, mean
measured_attribute: AUC(0-t) (µg·h/mL)
Report as a plain number; the unit µg·h/mL is understood.

The recorded AUC(0-t) for "C=C(C)[C@@H]1CCC(C)=C[C@H]1c1c(O)cc(CCCCC)cc1O" is 0.221

* * *

experimental_protocol: Pharmacokinetics after 24-hour subcutaneous infusion via fluid delivery device in male Beagle dogs (plasma, LC-MS/MS)
details: male, Beagle, dog, in vivo, sc, 76 mg, AUClast, SC infusion 76 mg/animal, mean
measured_attribute: AUC(0-t) (ng·h/mL)
Report as a plain number; the unit ng·h/mL is understood.

The recorded AUC(0-t) for "C=C(C)[C@@H]1CCC(C)=C[C@H]1c1c(O)cc(CCCCC)cc1O" is 303

* * *

experimental_protocol: Pharmacokinetics after 24-hour subcutaneous infusion via fluid delivery device in male Beagle dogs (plasma, LC-MS/MS)
details: male, Beagle, dog, in vivo, sc, 5.45 mg/kg, MRTlast, Group 2, SC infusion, dose 5.45 mg/kg, mean
measured_attribute: MRT last (h)
Report as a plain number; the unit h is understood.

The recorded MRT last for "C=C(C)[C@@H]1CCC(C)=C[C@H]1c1c(O)cc(CCCCC)cc1O" is 24.3

* * *

experimental_protocol: Pharmacokinetics after 24-hour subcutaneous infusion via fluid delivery device in male Beagle dogs (plasma, LC-MS/MS)
details: male, Beagle, dog, in vivo, sc, 40 mg/animal, Plasma concentration of CBD, Group 1, SC infusion 40 mg/animal, 36 hr, individual animals, BLOQ = below 1 ng/mL
measured_attribute: concentration at 36 h (ng/mL)
Report as a plain number; the unit ng/mL is understood.

The recorded concentration at 36 h for C=C(C)[C@@H]1CCC(C)=C[C@H]1c1c(O)cc(CCCCC)cc1O [CBD, Cannabidiol] is 9.05

* * *

experimental_protocol: in vivo
details: male, Beagle, dog, sc, 0.837 mg/kg, Tmax
measured_attribute: tmax
The answer consists of two parts: a number and, after it, its unit.

The recorded tmax for CN1CCc2cccc3c2[C@H]1Cc1ccc(O)c(O)c1-3 [Apomorphine] is 30 h

* * *

experimental_protocol: Pharmacokinetics after 24-hour subcutaneous infusion via fluid delivery device in male Beagle dogs (plasma, LC-MS/MS)
details: male, Beagle, dog, in vivo, sc, 40 mg, tmax, Group 1, SC infusion 40 mg/animal, mean
measured_attribute: tmax (h)
Report as a plain number; the unit h is understood.

The recorded tmax for C=C(C)[C@@H]1CCC(C)=C[C@H]1c1c(O)cc(CCCCC)cc1O [CBD, Cannabidiol] is 23.3

* * *

experimental_protocol: Pharmacokinetics after 24-hour subcutaneous infusion via fluid delivery device in male Beagle dogs (plasma, LC-MS/MS)
details: male, Beagle, dog, in vivo, sc, 76 mg, tmax, SC infusion 76 mg/animal, mean
measured_attribute: tmax (h)
Report as a plain number; the unit h is understood.

The recorded tmax for C=C(C)[C@@H]1CCC(C)=C[C@H]1c1c(O)cc(CCCCC)cc1O [CBD, Cannabidiol] is 17

* * *

experimental_protocol: Pharmacokinetics after 24-hour subcutaneous infusion via fluid delivery device in male Beagle dogs (plasma, LC-MS/MS)
details: male, Beagle, dog, in vivo, sc, 76 mg/animal, Plasma concentration of CBD, SC infusion 76 mg/animal, 12 hr, mean (BLOQ samples excluded)
measured_attribute: concentration at 12 h
The answer consists of two parts: a number and, after it, its unit.

The recorded concentration at 12 h for "C=C(C)[C@@H]1CCC(C)=C[C@H]1c1c(O)cc(CCCCC)cc1O" is 6.03 ng/mL

* * *

experimental_protocol: Pharmacokinetics after 24-hour subcutaneous infusion via fluid delivery device in male Beagle dogs (plasma, LC-MS/MS)
details: male, Beagle, dog, in vivo, sc, 76 mg/animal, Plasma concentration of CBD, SC infusion 76 mg/animal, 5 hr, individual animals, BLOQ = below 1 ng/mL
measured_attribute: concentration at 5 h (ng/mL)
Report as a plain number; the unit ng/mL is understood.

The recorded concentration at 5 h for C=C(C)[C@@H]1CCC(C)=C[C@H]1c1c(O)cc(CCCCC)cc1O [CBD, Cannabidiol] is 2.42

* * *

experimental_protocol: Pharmacokinetics after 24-hour subcutaneous infusion via fluid delivery device in male Beagle dogs (plasma, LC-MS/MS)
details: male, Beagle, dog, in vivo, sc, 40 mg, Cmax, Group 1, SC infusion 40 mg/animal, mean
measured_attribute: Cmax (ng/mL)
Report as a plain number; the unit ng/mL is understood.

The recorded Cmax for "C=C(C)[C@@H]1CCC(C)=C[C@H]1c1c(O)cc(CCCCC)cc1O" is 9.92

* * *

experimental_protocol: Pharmacokinetics after 24-hour subcutaneous infusion via fluid delivery device in male Beagle dogs (plasma, LC-MS/MS)
details: male, Beagle, dog, in vivo, sc, 76 mg, Cmax, SC infusion 76 mg/animal, mean
measured_attribute: Cmax (ng/mL)
Report as a plain number; the unit ng/mL is understood.

The recorded Cmax for "C=C(C)[C@@H]1CCC(C)=C[C@H]1c1c(O)cc(CCCCC)cc1O" is 11.7

* * *

experimental_protocol: Pharmacokinetics after 24-hour subcutaneous infusion via fluid delivery device in male Beagle dogs (plasma, LC-MS/MS)
details: male, Beagle, dog, in vivo, sc, 40 mg/animal, Plasma concentration of CBD, Group 1, SC infusion 40 mg/animal, 0.5 hr, mean (BLOQ samples excluded)
measured_attribute: concentration at 0.5 h
The answer consists of two parts: a number and, after it, its unit.

The recorded concentration at 0.5 h for C=C(C)[C@@H]1CCC(C)=C[C@H]1c1c(O)cc(CCCCC)cc1O [CBD, Cannabidiol] is 3.28 ng/mL
